assay: P-glycoprotein substrates identified in KB-8-5-11 adenocarcinoma cell line, qHTS therapeutic library screen (AID 1346987); conditions: KB-8-5-11 (P-gp overexpressing) viability, CellTiter-Glo, 72 h; series mostly up to 44.5 µM; further: nearly all actives have a fitted effect of over 65% in size
Inconclusive results are not listed. The source made the active and inactive calls. The call rests on the fitted dose curve; in most records, active means well fitted inhibition curve with a large enough effect; inconclusive means small, poorly fitted or top-dose-only effect; inactive means flat fitted curve, though single readings scatter.
Possible outcomes: active, inactive

compound: O=C(Nc1nc2ccccc2n1CCc1ccccc1)c1ccccc1
classLabel: inactive

compound: CC(c1ncncc1F)C(O)(Cn1cncn1)c1ccc(F)cc1F (stereo unspecified)
classLabel: inactive

compound: CC1(C)CC2C(O)c3cocc3CC(C)(O)C2C1 (stereo unspecified)
classLabel: inactive

compound: CCOc1cc(N2CCC(O)CC2)ccc1Nc1ncc2c(n1)N(C1CCCC1)CCC(=O)N2C
classLabel: active

compound: Cc1csc(NC(=O)c2ccc(COc3cccc(Cl)c3)o2)n1
classLabel: inactive

compound: CCC(C)C(=O)OC1CC(C)C=C2C=CC(C)C(CCC(O)CC(O)CC(=O)O)C21 (stereo unspecified)
classLabel: inactive

----------
test system: CAOV3; test: Primary qHTS to identify gynecologic anti-cancer compounds using libraries of approved drugs and bioactive compounds (AID 1345084); settings: Gynecologic cancer cell panel viability, ATPlite luminescence, 48 h; series mostly up to 57.5 µM; further: nearly all actives have a fitted effect of over 55% in size
Results filed as inconclusive are left out. Calls of active or inactive are those of the source. The call rests on the fitted dose curve; in most records, active means well fitted cell-killing curve with a large enough effect; inconclusive means small, poorly fitted or top-dose-only effect, or effect the other way; inactive means flat fitted curve, though single readings scatter.

compound: C=C[C@H]1[C@H](O[C@@H]2O[C@H](CO)[C@@H](O)[C@H](O)[C@H]2O)OC=C(C(=O)OC)[C@H]1C[C@@H]1c2cc(O)c(O)cc2CCN1C(C)=O
outcome: inactive

compound: CC1=C(C(=O)O[C@@H]2O[C@H](COC3OCC(O)C(O)C3O)[C@@H](O)[C@H](O)[C@H]2O)C(C)(C)CCC1 (some centres undefined)
outcome: inactive

compound: Cc1noc(-c2ccc(-c3ccc(CC(=O)O)cc3)cc2)c1NC(=O)O[C@H](C)c1ccccc1
outcome: inactive

compound: C=C(C)C(=O)O[C@H]1C[C@@](C)(O)C(=O)CC(O)/C(C)=C\[C@H]2OC(=O)C(=C)[C@H]12 (some centres undefined)
outcome: inactive

----------
tested on: HaCat; assay: Cytotoxic Profiling of Annotated Libraries Using Quantitative High-Throughput Screening (AID 1296008); settings: Five cell lines viability, CellTiter-Glo ATP luminescence, 48-72 h; further: nearly all actives have a fitted effect of over 60% in size
Records with an inconclusive call do not appear. Active and inactive are the calls of the source. Calls follow the shape of the dose curve; as a rule, active = well fitted inhibition curve with a large enough effect; inconclusive = small, poorly fitted or top-dose-only effect; inactive = flat fitted curve, though single readings scatter.
Possible outcomes: T for active, F for inactive

molecule: CCC(C(=O)O)c1ccc(N2Cc3ccccc3C2=O)cc1 (stereo not given)
classLabel: F
--
molecule: Cc1[nH]c2ccccc2c1C1=C(NCCc2ccc(F)cc2)C(=O)N(C)C1=O
classLabel: T
--
molecule: CS(=O)(=O)NCC1CCC(Nc2nc3c(s2)CCSc2ccccc2-3)CC1 (stereo not given)
classLabel: F
--
molecule: CCC1C(=O)N(C)c2cnc(Nc3ccc(C(=O)NC4CCC(N5CCN(CC6CC6)CC5)CC4)cc3OC)nc2N1C(C)C (stereo not given)
classLabel: T
--
molecule: CC(C)S(=O)(=O)N[C@H]1CCOC[C@@H]1c1ccc(-c2ccc(C#N)s2)cc1
classLabel: F
--
molecule: CNC(=O)c1ccccc1Nc1nc(Nc2ccc(N3CCNCC3)cc2)ncc1Cl
classLabel: T
--
molecule: O=C1C=CC2OC(c3ccccc3)C(O)C2O1 (stereo not given)
classLabel: F
--
molecule: CC1(C)CCCC2(C)C1CC(=O)C13CC(CCC12)C(O)(CO)C3 (stereo not given)
classLabel: F
--
molecule: CCC(C)C(=O)OC1CC(O)C23C4OCC5(C(O)CC2C1(C)C(O)O4)C3C(=O)C(O)C1(C)C(O)(c2ccoc2)CC2OC251 (stereo not given)
classLabel: T
--
molecule: C=CC(=O)Nc1cc(Nc2ncc(Cl)c(-c3c[nH]c4ccccc34)n2)c(OC)cc1N(C)CCN(C)C
classLabel: T
